- tested-on: DNA topoisomerase 2-alpha (Homo sapiens) (UniProt P11388)
- Sequence (P11388 whole entry): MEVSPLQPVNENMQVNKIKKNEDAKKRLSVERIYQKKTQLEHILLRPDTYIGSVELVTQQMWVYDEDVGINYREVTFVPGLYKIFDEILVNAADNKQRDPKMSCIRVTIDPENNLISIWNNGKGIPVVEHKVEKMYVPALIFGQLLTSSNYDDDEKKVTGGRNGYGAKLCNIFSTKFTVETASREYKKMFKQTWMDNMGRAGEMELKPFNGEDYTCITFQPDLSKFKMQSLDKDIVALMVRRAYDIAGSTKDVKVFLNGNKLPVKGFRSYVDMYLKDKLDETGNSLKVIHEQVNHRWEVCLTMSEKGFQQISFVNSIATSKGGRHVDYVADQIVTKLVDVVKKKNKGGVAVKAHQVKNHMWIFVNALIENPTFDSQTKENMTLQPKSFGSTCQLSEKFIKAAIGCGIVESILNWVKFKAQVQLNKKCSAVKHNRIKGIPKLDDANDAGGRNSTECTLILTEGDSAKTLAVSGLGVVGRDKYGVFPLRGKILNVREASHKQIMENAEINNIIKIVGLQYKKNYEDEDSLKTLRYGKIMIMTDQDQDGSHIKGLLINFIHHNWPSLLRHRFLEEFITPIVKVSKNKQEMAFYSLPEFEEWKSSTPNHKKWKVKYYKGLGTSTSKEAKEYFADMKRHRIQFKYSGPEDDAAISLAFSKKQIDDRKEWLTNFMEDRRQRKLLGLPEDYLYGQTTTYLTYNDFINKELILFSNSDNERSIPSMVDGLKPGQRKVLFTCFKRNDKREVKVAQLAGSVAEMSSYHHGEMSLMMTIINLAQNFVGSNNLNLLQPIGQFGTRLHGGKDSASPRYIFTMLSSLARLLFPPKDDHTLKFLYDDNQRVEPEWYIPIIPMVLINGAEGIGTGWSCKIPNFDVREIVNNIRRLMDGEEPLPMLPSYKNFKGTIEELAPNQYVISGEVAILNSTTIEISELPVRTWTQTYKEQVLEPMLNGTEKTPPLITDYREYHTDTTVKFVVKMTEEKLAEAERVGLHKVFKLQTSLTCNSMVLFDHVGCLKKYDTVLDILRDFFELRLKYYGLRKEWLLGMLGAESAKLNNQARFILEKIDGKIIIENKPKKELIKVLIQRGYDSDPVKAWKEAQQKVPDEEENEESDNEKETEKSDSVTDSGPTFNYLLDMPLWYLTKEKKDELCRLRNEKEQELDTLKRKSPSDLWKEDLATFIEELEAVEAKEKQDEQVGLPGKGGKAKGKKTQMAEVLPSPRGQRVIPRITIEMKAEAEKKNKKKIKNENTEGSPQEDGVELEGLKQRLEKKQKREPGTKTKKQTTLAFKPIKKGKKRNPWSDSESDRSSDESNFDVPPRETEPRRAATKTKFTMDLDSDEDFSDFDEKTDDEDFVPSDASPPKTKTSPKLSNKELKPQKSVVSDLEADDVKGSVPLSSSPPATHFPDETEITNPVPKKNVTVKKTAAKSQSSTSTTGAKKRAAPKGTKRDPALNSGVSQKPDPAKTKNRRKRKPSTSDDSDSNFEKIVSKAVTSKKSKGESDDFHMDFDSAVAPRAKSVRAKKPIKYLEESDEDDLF
- assay: Inhibition of recombinant human topoisomerase 2alpha assessed as relaxation of supercoiled plasmid pBR322 DNA at 100 uM by agarose gel electrophoresis (reference value: 82.2%)
Decide using inhibition: a value greater than or equal to 80% is Satisfied, a smaller one is Not satisfied.

[Q] Could you tell me if the measured inhibition of O=C1c2ccccc2-c2nc(-c3ccccc3F)cc(-c3ccccc3)c21 reaches 80% or more?
[A] Not satisfied

[Q] Could you tell me if the measured inhibition of O=C1c2ccccc2-c2nc(-c3ccccc3Br)cc(-c3ccccc3)c21 reaches 80% or more?
[A] Satisfied

[Q] Could you tell me if the measured inhibition of O=C1c2ccccc2-c2nc(-c3ccc(Cl)cc3)cc(-c3ccccc3)c21 reaches 80% or more?
[A] Satisfied

[Q] Could you tell me if the measured inhibition of O=C1c2ccccc2-c2nc(-c3ccccc3Cl)cc(-c3ccccc3)c21 reaches 80% or more?
[A] Satisfied

[Q] Could you tell me if the measured inhibition of O=C1c2ccccc2-c2nc(-c3cccc(Br)c3)cc(-c3ccccc3)c21 reaches 80% or more?
[A] Satisfied

[Q] Could you tell me if the measured inhibition of O=C1c2ccccc2-c2nc(-c3cccc(Cl)c3)cc(-c3ccccc3)c21 reaches 80% or more?
[A] Satisfied

[Q] Could you tell me if the measured inhibition of O=C1c2ccccc2-c2nc(-c3cccc(F)c3)cc(-c3ccccc3)c21 reaches 80% or more?
[A] Not satisfied

[Q] Could you tell me if the measured inhibition of O=C1c2ccccc2-c2nc(-c3ccc(F)cc3)cc(-c3ccccc3)c21 reaches 80% or more?
[A] Not satisfied

[Q] Could you tell me if the measured inhibition of O=C1c2ccccc2-c2nc(-c3ccc(Br)cc3)cc(-c3ccccc3)c21 reaches 80% or more?
[A] Satisfied
